Test system: RPMI-8226
Assay: NCI tumour cell line growth inhibition, 48 h
Activity calls are given as the source filed them. No stated cut-off is given here; in the data, active = GI50 up to about 1.1 µM and inactive = higher.
Select the correct class. Options are class 1 for active, class 0 for inactive and nothing else.

Sample answers from the record:
Fill in: this test's call for COC(=O)C1C(C(=O)OC)N(Cc2ccccc2)C(=O)N1Cc1ccccc1 (stereo not given) is ___
class 0

Fill in: this test's call for COc1ccc(C(=O)/C=C/c2ccc(OCCSCCCCCCCCCCSCCOc3ccc(/C=C/C(=O)c4ccc(OC)c(OC)c4)cc3)cc2)cc1OC is ___
class 0

Fill in: this test's call for COc1ccc(/C=C2\N/C(=N/N)N=C2Cl)cc1 is ___
class 0

Fill in: this test's call for O=c1c(O)c(-c2ccc(O)c(O)c2)oc2cc(O)ccc12 is ___
class 0

Fill in: this test's call for Cc1cc2oc(-c3ccccc3)c(C)c(=O)c2c2c1OC(C)(C)S2 is ___
class 0

Fill in: this test's call for CC(=O)N(C(C)=O)c1c(N)n(C)c(=O)[nH]c1=O is ___
class 0

More entries:
Fill in: this test's call for O=[N+]([O-])c1ccc(-c2cn(-c3ccc(Cl)cc3)cn2)cc1 is ___
class 0

Fill in: this test's call for Cc1cc(C)c(O)c(Cc2cccc(Cc3cc(C)cc(C)c3O)c2O)c1 is ___
class 0
